Entries and their cytotoxicity at 10 µM values follow.
# assay procedure: Toxicity liver stage against HepG2, at 10uM
# Format: cell-based
# Set-up: test concentration 10 uM, cell line HepG2-A16-CD81EGFP
# conditions used: human, HepG2-A16-CD81EGFP cells; read-out: INHIBITION
Report the value in % with no unit label.

Cc1cc(O)cc2c(=O)oc(CC(C)O)cc12 (stereo unspecified); 0.346
CN(C)S(=O)(=O)N1C[C@@H](OCc2cccnc2)[C@H]2OCCC[C@H]21; 0.74
CN1CCC2(CC1)CC(NC(=O)c1csnn1)c1ccccc1O2 (stereo unspecified); -95.4
Cc1cc(C[C@@H]2COC[C@@H]2NC(=O)CN2CCCC2)on1; -30.2
Cn1nc2c(cc1=O)CN(Cc1coc(-c3cccs3)n1)CC2; -11.1

Q) I'd like to know its cytotoxicity at 10 µM. The compound in question is CCn1ncc2c1CCCC2NCc1ccc(C)s1 (stereo unspecified)
A) -6.73

Q) I'd like to know its cytotoxicity at 10 µM. The compound in question is CCCS(=O)(=O)N1CCC2(CC(C(=O)NCc3cccnc3)=NO2)C1 (stereo unspecified)
A) -4.51

* * *

Entries and their cytotoxicity at 10 µM values follow.
# assay procedure: Toxicity liver stage against HepG2, at 10uM
# Assay type: cell-based
# Design: test concentration 10 uM, cell line HepG2-A16-CD81EGFP
# conditions used: human, HepG2-A16-CD81EGFP cells; read-out: INHIBITION
Report the value in % with no unit label.

CC(C)(C)S(=O)(=O)c1ccc(N2CCC(n3ccnc3)CC2)cn1; -6.62
Cc1cnn(CC2CN(Cc3nnc(-c4ccccc4)o3)CCO2)c1 (centres undefined); -6.61
CCCc1cc(NC2CCN(Cc3ccccn3)CC2)n2nccc2n1; -3.91

Q) I'd like to know its cytotoxicity at 10 µM. The compound in question is CSc1ccc(-c2nc(CN3CCC(NC(C)=O)C3)c(C)o2)cc1 (centres undefined)
A) 1.24

Q) I'd like to know its cytotoxicity at 10 µM. The compound in question is NCCn1cc(C(=O)N2CCCCCC2c2ccco2)nn1 (centres undefined)
A) -4.94

Q) I'd like to know its cytotoxicity at 10 µM. The compound in question is COCc1nc(CN2CCN(c3ccc(OC)cc3)C(=O)C2C)no1 (centres undefined)
A) 3.35

Q) I'd like to know its cytotoxicity at 10 µM. The compound in question is Cc1ccc(CNC(CCO)C2CCCCC2)nc1 (centres undefined)
A) -37.4

Q) I'd like to know its cytotoxicity at 10 µM. The compound in question is `CCS(=O)(=O)NC[C@]12COC[C@H]1CN(Cc1ccccn1)C2`
A) -72.5

Q) I'd like to know its cytotoxicity at 10 µM. The compound in question is `Cn1cc(-c2nc(CN3CCc4c(ncn4C4CC4)C3)cs2)cn1`
A) -17.6

* * *

Entries and their cytotoxicity at 10 µM values follow.
# assay procedure: Toxicity liver stage against HepG2, at 10uM
# Format: cell-based
# Parameters: test concentration 10 uM, cell line HepG2-A16-CD81EGFP
# conditions used: human, HepG2-A16-CD81EGFP cells; read-out: INHIBITION
Report the value in % with no unit label.

Q) I'd like to know its cytotoxicity at 10 µM. The compound in question is `Cc1cnn(C2CN(CC(=O)N(C)Cc3cccs3)C2)c1`
A) -16.1

Q) I'd like to know its cytotoxicity at 10 µM. The compound in question is `Cc1nc(N2CCCC2)nc(C)c1NC(=O)c1ccco1`
A) -7.7

Q) I'd like to know its cytotoxicity at 10 µM. The compound in question is `CCOC(=O)NCCNC(=O)c1cc2ccccc2nc1N1CCCC1`
A) -7.74

Q) I'd like to know its cytotoxicity at 10 µM. The compound in question is O=C1CC(NS(=O)(=O)N2CCOCC2)CN1CCc1ccccc1 (centres undefined)
A) 14.4

* * *

Entries and their cytotoxicity at 10 µM values follow.
# assay procedure: Toxicity liver stage against HepG2, at 10uM
# Assay type: cell-based
# Parameters: test concentration 10 uM, cell line HepG2-A16-CD81EGFP
# conditions used: human, HepG2-A16-CD81EGFP cells; read-out: INHIBITION
Report the value in % with no unit label.

Cn1ccnc1COc1ccc(COC(=O)C2CCCO2)cc1 (configuration not stated); -1.39

Q) I'd like to know its cytotoxicity at 10 µM. The compound in question is CC(C)c1nn(C)c(Cl)c1CNCC(O)c1cccc(F)c1 (configuration not stated)
A) -1.83

Q) I'd like to know its cytotoxicity at 10 µM. The compound in question is COc1ccc(CNCC(C)Oc2ccccn2)cc1Br (configuration not stated)
A) -10.2

Q) I'd like to know its cytotoxicity at 10 µM. The compound in question is CC(O)c1cccc(-n2c(CCC(=O)O)nc3ccccc32)c1 (configuration not stated)
A) 2.16

Q) I'd like to know its cytotoxicity at 10 µM. The compound in question is `Cc1ccc(CN2CC[C@@H](O)[C@@H]2Cc2ccccc2)o1`
A) 1.73

Q) I'd like to know its cytotoxicity at 10 µM. The compound in question is Cc1cccnc1CNCC1(O)CCCN(CC(C)(C)C)C1=O (configuration not stated)
A) -11.8

Q) I'd like to know its cytotoxicity at 10 µM. The compound in question is CCc1ccsc1C(=O)N1CCN(CC(C)O)CC1 (configuration not stated)
A) -33.1

* * *

# assay procedure: Toxicity liver stage against HepG2, at 10uM
# Assay type: cell-based
# Parameters: test concentration 10 uM, cell line HepG2-A16-CD81EGFP
# conditions used: human, HepG2-A16-CD81EGFP cells; read-out: INHIBITION
measured quantity: cytotoxicity at 10 µM (%)
Report the value in % with no unit label.

O=C(O)c1cncc(Cc2cccc(F)c2)c1; 5.31
O=C1CC2(CCN(Cc3ccncc3)C2)CN1c1ccc2c(c1)OCO2 (stereo unspecified); -74.1
Cc1ccc(C(=O)N2CCCC(NC(=O)C(C)C)C2)c(O)c1 (stereo unspecified); -7.84
CCN1CCC(NC(=O)CN2CCCCC2Cn2cccn2)CC1 (stereo unspecified); -2.71
COc1cc(N2C[C@H]3OCC[C@H]3[C@H](C(=O)N3CCCC3)C2)ncn1; 4.99
O=C(c1ccco1)N1CC[C@H]2[C@H]1CCN2CC1CCOCC1; 5.12
CNC(=O)C1Cn2ccnc2C2(CCN(C(=O)CC3CCCC3)CC2)O1 (stereo unspecified); -145
Nc1ncncc1-c1noc([C@@H]2CCCN2Cc2cccnc2)n1; -7.29

Q) I'd like to know its cytotoxicity at 10 µM. The molecule in question is `C[C@]1(O)CCN(Cc2nccs2)C[C@@H]1Oc1cccc(F)c1`
A) -0.779

Q) I'd like to know its cytotoxicity at 10 µM. The molecule in question is `CN(Cc1ccc2c(c1)OCCO2)C(=O)Cn1ccccc1=O`
A) 1.2

Q) I'd like to know its cytotoxicity at 10 µM. The molecule in question is CN(C)CC1CN(Cc2csc(C3CCCC3)n2)CCO1 (stereo unspecified)
A) -7.32

* * *

Entries and their cytotoxicity at 10 µM values follow.
# assay procedure: Toxicity liver stage against HepG2, at 10uM
# Type: cell-based
# Set-up: test concentration 10 uM, cell line HepG2-A16-CD81EGFP
# conditions used: human, HepG2-A16-CD81EGFP cells; read-out: INHIBITION
Report the value in % with no unit label.

Cc1cc(C)n(C2CCCN(C(=O)COCC(F)(F)F)C2)n1 (stereo unspecified); -4.3
O=C1CCCN1CCCN1CCCC1Cn1cccn1 (stereo unspecified); -1.82

Q) I'd like to know its cytotoxicity at 10 µM. The compound in question is NCC(CO)Cc1ccc(OC(F)(F)F)cc1 (stereo unspecified)
A) 8.65

* * *

Entries and their cytotoxicity at 10 µM values follow.
# assay procedure: Toxicity liver stage against HepG2, at 10uM
# Assay type: cell-based
# Set-up: test concentration 10 uM, cell line HepG2-A16-CD81EGFP
# conditions used: human, HepG2-A16-CD81EGFP cells; read-out: INHIBITION
Report the value in % with no unit label.

In the examples that follow, each entry is paired with its recorded cytotoxicity at 10 µM.
N[C@H]1c2ccccc2C[C@@H]1NC(=O)C1CCN(Cc2ccco2)CC1; -8.57
Cc1nc(N2C[C@H]3CNC[C@H]3C2)c2sccc2n1; 9.26
CCc1nc(CN(CCc2ccccc2)C2CCN(C)CC2)no1; -0.355
Cc1cnn(CC2CCCN2C(=O)c2cc3ccccc3[nH]2)c1 (stereo unspecified); -0.433
COC(=O)c1ccc(CN2CCC(c3noc(C)n3)CC2)s1; -1.51

Q) I'd like to know its cytotoxicity at 10 µM. The compound in question is `CC(C)[C@H]1COC(=O)N1Cc1noc(-c2ccccc2)n1`
A) 5.01

Where do the numbers come from? From ChEMBL document CHEMBL4513216.
